system-under-test: Sortase A (Ss-SrtA) (Streptococcus suis, UniProt Q8VUP7)
Construct: residues N24-Q235, C-terminal His-tag
Sequence (Q8VUP7 entry or part of it): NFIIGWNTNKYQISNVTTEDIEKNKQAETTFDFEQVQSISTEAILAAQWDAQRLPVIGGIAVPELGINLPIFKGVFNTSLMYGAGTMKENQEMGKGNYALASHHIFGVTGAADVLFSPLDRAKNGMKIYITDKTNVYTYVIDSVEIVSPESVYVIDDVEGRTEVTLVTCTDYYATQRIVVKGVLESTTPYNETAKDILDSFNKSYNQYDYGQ
test-method-notes: fluorescence-quenched peptide (abz-LPATG-dnp) hydrolysis assay with recombinant enzyme
pIC50: −log10 of the molar value.
As shown below, each of these compounds has a reported pIC50 value.
measurement-kind: pIC50

1. O=C(O)[C@H]1O[C@@H](Oc2cc3oc(-c4ccccc4)cc(=O)c3c(O)c2O)[C@H](O)[C@@H](O)[C@@H]1O ... 4.07
2. C[C@@H]1O[C@@H](O[C@@H]2[C@@H](O)[C@H](OCCc3ccc(O)c(O)c3)O[C@H](CO)[C@H]2OC(=O)/C=C/c2ccc(O)c(O)c2)[C@H](O)[C@H](O)[C@H]1O [acteoside] ... 4.44

====

system-under-test: Sortase A (Ss-SrtA) (Streptococcus suis)
Construct: residues N24-Q235, C-terminal His-tag
test-method-notes: fluorescence-quenched peptide (abz-LPATG-dnp) hydrolysis assay with recombinant enzyme
Counter-ions that a name gives are not always drawn.
As shown below, each of these molecules has a reported IC50 value.
measurement-kind: IC50

1) COc1ccc2cc3[n+](cc2c1OC)CCc1cc2c(cc1-3)OCO2 [berberine hydrochloride] ... < 100 µM
2) O=c1c(O)c(-c2ccc(O)c(O)c2)oc2cc(O)cc(O)c12 ... < 100 µM
3) COc1cc(/C=C/C(=O)CC(=O)/C=C/c2ccc(O)c(OC)c2)ccc1O ... < 100 µM
